- EXPERIMENTAL_TARGET: SARS-CoV-2 RBD (receptor binding domain of spike protein of SARS-CoV-2) (SARS-CoV-2, UniProt P0DTC2 319-541)
- METHOD_DESCRIPTION: ELISA, S1-RBD coated on the plate, antibody at one concentration, anti-human IgG-HRP
Listed binders paired with reported OD450
Just the number, please, no unit attached.

- BINDER: "Antibody 12-9 (antibody, V domains shown) VH: EVQLVESGGGLVKPGGSLRLSCAASEFTFSSYSMNWVRQAPGKGLEWVSSISSSGSDIYYADSVKGRFTISRDNAKKSLYLQMNSLRVEDTAVYYCATNGGAHSSTWSFYGMDVWGQGTTVTVSS VL: SYELTQPPSVSVSPGQTATITCSGDKLGDKYACWYQQRPGQSPVLVIYQDSKRPSGIPERFSGSNSGNTATLTIGGTQAMDEAAYFCQAWDSNTGVFGGGTKLTVL"
  OD450: 0.0764
- BINDER: "Antibody 12-11 (antibody, V domains shown) VH: QVQVVQSGAEVKKPGASVKVSCKVSGYTLIEISIHWVRQAPGKGLEWMGGFDPEAGETIYAQKFQGRVTMTEDTSTDTAYMEVSSLRSEDTAVYYCATGPAIAAAETNWFDLWGQGTLVTVSS VL: QSALTQPASVSGSPGQSITISCTGTSSDVGSYNYVSWYQQHPGKAPKLMIYDVTKRPSGVPDRFSGSKSGNTASLTISGLQAEDEADYYCSSYTSSSTWVFGGGTKLTVL"
  OD450: 0.0638
- BINDER: "Antibody 12-17 (antibody, V domains shown) VH: EVQLVESGGGLVKPGGSLRLSCAASGFTLNSYSMNWVRQAPGKGLEWVSSISSTSSDIYYADSVKGRFTISRDNAKNSVDLQMNSLRAEDTAVYYCATNGGAHRNTWSFYGMDVWGQGTTVTVSS VL: SYELTQPPSVSVSPGQTASITCSGDKLGDKYASWYQQKPGQSPVLVIYQDTKRPSGIPERFSGSNSGNTVTLTISGTQAMDEADYYCQAWDSSTGVFGGGTKLTVL"
  OD450: 0.0641

Could you now consider this next binder?
So, Antibody 14-8 (antibody, V domains shown) VH: QVQLVQSGAEVKKPGASVKVSCKASGYTFTGYYIHWVRQAPGKGPEWMGWINPNSGGTNYAQKFQGWVTMTRDTSISAAYMELSRLKFDDTAIYYCAKSGEKVGADLGYYDYGMDLWGQGTTVTVSS VL: SYELTQPPSVSVSPGQTARITCSGDALPKQYAYWYQQKPGQAPVMVIYKDTERPSGIPERFSGSSSGTTVTLTISGVQAEDEADYNCQSVDSSGAYVVFGGGTKLTVL ? Its OD450 was 0.0693
